Origin of values: patent US20090325959A1

biological target: ROCK2 (Homo sapiens); construct: purchased Upstate/Chemicon 14-451; assay: Rho kinase inhibition assay (IMAP fluorescence polarization), ROCK2; assay type: biochemical; settings: 10 μM ATP; read-out: ROCK2 Ki, Avg;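 further: kinase reaction started with 10 µM ATP and run 60 min at room temperature, then phosphorylated substrate captured on IMAP beads for 30 min and fluorescence polarization read in mP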
Sequence (O75116 11-552 limits assumed): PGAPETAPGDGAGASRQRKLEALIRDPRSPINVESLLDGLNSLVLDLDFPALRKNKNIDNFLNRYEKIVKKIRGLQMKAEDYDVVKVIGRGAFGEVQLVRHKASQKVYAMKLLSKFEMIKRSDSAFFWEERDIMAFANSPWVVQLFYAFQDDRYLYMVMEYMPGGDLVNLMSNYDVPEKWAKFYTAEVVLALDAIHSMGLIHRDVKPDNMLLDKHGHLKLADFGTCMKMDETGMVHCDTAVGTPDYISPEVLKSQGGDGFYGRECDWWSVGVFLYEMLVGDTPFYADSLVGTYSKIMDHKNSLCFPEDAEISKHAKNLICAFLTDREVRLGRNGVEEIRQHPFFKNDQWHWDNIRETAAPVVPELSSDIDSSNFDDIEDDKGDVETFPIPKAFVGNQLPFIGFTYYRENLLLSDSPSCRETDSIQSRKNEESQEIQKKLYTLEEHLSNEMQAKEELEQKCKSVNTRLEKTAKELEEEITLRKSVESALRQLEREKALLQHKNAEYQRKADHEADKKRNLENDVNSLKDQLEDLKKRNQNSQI
measured quantity: log10 Ki (log10 of the value in nM)
Response schema: value (number) is log10 of Ki in units of nM.

Some entries whose results are on file:
[[record]]
molecule = "Clc1ccc(CN2CC[C@@H](Nc3cccc4cnccc34)C2)cc1 [Compound 2.027]"
assayed_target = "ROCK2 (Homo sapiens)"
reported = 0.87

[[record]]
molecule = "c1cc(CN2CCC[C@H](Nc3ccc4[nH]ncc4c3)C2)cc(C2CC2)c1 [Compound 1.186]"
assayed_target = "ROCK2 (Homo sapiens)"
reported = 1.08

[[record]]
molecule = "Cc1ccc(CN2CCC[C@H](Nc3ccc4[nH]ncc4c3)C2)cc1 [Compound 1.078]"
assayed_target = "ROCK2 (Homo sapiens)"
reported = 0.56

[[record]]
molecule = "CC(C)(C)OC(=O)NCc1cccc(CN2CCC[C@@H](Nc3ccc4[nH]ncc4c3)C2)c1 [Compound 1.140]"
assayed_target = "ROCK2 (Homo sapiens)"
reported = 1.52


## Input Requested read-out: log10 Ki. Entry: CCS(=O)(=O)Nc1cccc(CN2CCC[C@@H](Nc3ccc4[nH]ncc4c3)C2)c1 [Compound 1.123]
## Output 0.98

## Input Requested read-out: log10 Ki. Entry: c1ccc(Cn2ccnc2CN2CCC[C@@H](Nc3ccc4[nH]ncc4c3)C2)cc1 [Compound 1.263]
## Output 2.66

## Input Requested read-out: log10 Ki. Entry: Oc1cccc(CN2CC[C@@H](Nc3cccc4cnccc34)C2)c1 [Compound 2.061]
## Output 0.26

## Input Requested read-out: log10 Ki. Entry: NC(=O)Cn1ccc2cc(CN3CCC[C@H](Nc4ccc5[nH]ncc5c4)C3)ccc21 [Compound 1.165]
## Output 0.53
